Tested on: IGROV-1
procedure.text: NCI tumour cell line growth inhibition, 48 h
Activity calls are given as the source filed them. No stated cut-off is given here; in the data, active = GI50 up to about 1.1 µM and inactive = higher.
measured.endpoint: GI50

[[record]]
molecule = "C=CC1=C(C)c2cc3[nH]c(cc4nc(cc5[nH]c(cc1n2)c(C)c5CCC(=O)N(CC)CC)C(CCC(=O)N(CC)CC)=C4C)c(C)c3C=C"
result = "> 100 µM (inactive)"

[[record]]
molecule = "CN[C@@H](C)[C@H](NC)c1ccccc1"
result = "> 100 µM (inactive)"

[[record]]
molecule = "C=C(C(=O)OC)[C@@H]1C[C@@H](OC(C)=O)C2=C[C@H](C[C@@]3(C)O[C@@H]3C3=CC(C)=C(O3)[C@H]1OC(C)=O)OC2=O [BIPINNATIN I]"
result = "15.3 µM (inactive)"

[[record]]
molecule = "O=C(O)c1nc2ccccc2nc1NCc1ccc(F)cc1"
result = "46.6 µM (inactive)"

